Known GI50 of a selection of compounds
- Test system: SF-268 CNS
- assay.name: NCI tumour cell line growth inhibition, 48 h

| compound | GI50 |
| --- | --- |
| Nc1nc(-c2ccccc2)nc(N)c1N=O | 12.3 µM |
| C=C1CCC2C(C)(C)CCC[C@]2(C)[C@H]1CO (some centres undefined) | > 100 µM |
| C[C@@H](CO)[C@@H]1CCC=C2CC[C@]3(C)[C@H](CC[C@@H]4[C@@]5(C)CCCNC(C)(C)[C@@H]5CC[C@]43C)[C@H]21 | 4.48 µM |
| COc1cc(O)c(C(=O)/C=C/c2ccc(O)cc2)c(O)c1[C@@H]1C[C@H](CCc2ccc(O)cc2)O[C@H](c2ccc(O)cc2)C1 | 3.85 µM |
| N#Cc1c(N)nc(N2CCOCC2)c(C#N)c1-c1cccnc1 | > 100 µM |
| O=C1/C(=C/c2ccc(Cl)cc2)N=C(c2ccccc2)N1CCc1cccs1 | 31.7 µM |
| Oc1[nH]c2ccc(Cl)cc2c1/C=c1/ccc2c(c1)N=C(c1ccc(F)cc1)N=2 | 2.16 µM |
| COc1cc2c(cc1C)NC(=O)/C2=C\c1cccc(Oc2ccccc2)c1 | 13.9 µM |
| CCNC(=O)c1cc2c(-c3cc(C(C)(C)O)ccc3Oc3c(C)cc(F)cc3C)cn(C)c(=O)c2[nH]1 | 3.58 µM |

====

- System: K-562 leukemia
- assay.name: NCI tumour cell line growth inhibition, 48 h; in the data active means GI50 below about 0.43 µM; inactive means the rest
Outcomes: 1 for active, 0 for inactive

| molecule | assay.target | assigned.category |
| --- | --- | --- |
| Nc1nc(-c2ccccc2)nc(N)c1N=O | K-562 leukemia | 0 |
| O=C(/C=C/c1cc([N+](=O)[O-])ccc1Cl)c1ccccc1 | K-562 leukemia | 0 |
| Cn1ccnc1C(=O)/C=C/c1ccccc1 | K-562 leukemia | 0 |
| CC1(C)[C@@H](O[C@@H]2OC[C@@H](O[C@@H]3O[C@H](CO)[C@@H](O)[C@H](O)[C@H]3O[C@@H]3OC[C@@H](O)[C@H](O)[C@H]3O)[C@H](O)[C@H]2O[C@@H]2O[C@H](CO)[C@@H](O)[C@H](O)[C@H]2O)CC[C@]2(C)[C@H]3CC[C@]45OC[C@@]6(CC[C@](C)(C=O)C[C@H]64)[C@H](O)C[C@@]5(C)[C@]3(C)CC[C@@H]12 | K-562 leukemia | 0 |
| CC(=Nc1ccccc1)C1=C(O)C(Cc2ccccc2)NC1=O (stereo unspecified) | K-562 leukemia | 1 |
| C=C1CCC2C(C)(C)CCC[C@]2(C)[C@H]1CO (stereo partly specified) | K-562 leukemia | 0 |

====

- Test system: M14 melanoma
- assay.name: NCI tumour cell line growth inhibition, 48 h

| compound | TGI |
| --- | --- |
| NCCCNCCCCN(CCCN)/[N+]([O-])=N\O | > 100 µM |
| CC(=O)O[C@]1(C(C)=O)CC[C@H]2[C@@H]3C=C(C)C4=CC(=O)CC[C@]4(C)[C@H]3CC[C@@]21C | > 100 µM |
| CCCCNC(=S)Nc1nc(C(=O)NNC(=S)NC2CCCCC2)cs1 | > 100 µM |
| COc1ccc(/C(C#N)=C/c2ccc(OC)c(OC)c2)cc1 | > 100 µM |
| COC(=O)C1=C(O)C(C(=O)OC)[C@]2(O)[C@H](C(=O)OC)[C@H]1C[C@@H](c1c(Cl)cccc1Cl)[C@H]2C(=O)OC (stereo partly specified) | 2.88 µM |
| COc1ccc(C(SCCO)(c2ccccc2)c2ccccc2)cc1 | 21.3 µM |

====

- Tested on: PC-3 prostate
- assay.name: NCI tumour cell line growth inhibition, 48 h
TGI below 30 µM gives n; TGI at or above it gives y.

| compound | assay.target | assigned.category |
| --- | --- | --- |
| Cc1ccc(OC2CC(n3cnc4ncnc(Cl)c43)OC2Oc2ccc(C)cc2)cc1 (centres undefined) | PC-3 prostate | y |
| CN(C)c1ccccc1CN1CCCN(Cc2ccccc2N(C)C)C1c1ccncc1 | PC-3 prostate | y |
| C=C1CC/C=C(\C)C(=O)C[C@@H]2[C@@H]1CC2(C)C | PC-3 prostate | n |
| Cn1ccnc1C(=O)/C=C/c1ccccc1 | PC-3 prostate | y |
| Cn1/c(=N\S(=O)(=O)c2ccccc2)n(S(=O)(=O)c2ccccc2)c2ccccc21 | PC-3 prostate | y |
| CCN1CCN(c2nc3ccc([N+](=O)[O-])cc3nc2C(=O)c2ccccc2)CC1 | PC-3 prostate | y |
| Cc1cc(Cl)ccc1NC(=O)c1cc2ccccc2cc1O | PC-3 prostate | n |
| CC1(CCCO)CCCCCCCCCC(C)(CCCO)C1=O (centres undefined) | PC-3 prostate | y |
| COc1cc(COC(=O)N(CC(=O)O)c2ccccc2)c([N+](=O)[O-])cc1OC | PC-3 prostate | y |
| CCCCNC(=S)Nc1nc(C(=O)NNC(=S)NC2CCCCC2)cs1 | PC-3 prostate | y |
| NC1CC2NC3CCCCC3NC2CC1N (centres undefined) | PC-3 prostate | y |
| c1csc(-c2cc(-c3cccs3)c(-c3cccs3)s2)c1 | PC-3 prostate | y |
| Cc1cc(N(CCNc2ccnc3cc(Cl)ccc23)Cc2ccco2)nc(Cl)n1 | PC-3 prostate | n |
| O=C(O)c1cnc2[nH]ccn2c1=O | PC-3 prostate | y |

====

Below, each of the molecules is paired with its reported TGI value.
- Tested on: A549 NSCLC
- assay.name: NCI tumour cell line growth inhibition, 48 h
measured.property: TGI

| molecule | assay.value |
| --- | --- |
| CCCCCCCCCCCCOP(=O)(O)OCC(N)C(=O)O (stereo unspecified) | > 100 µM |
| C#CC1(O)C(COP(=O)(O)OCC2OC(n3ccc(NCCCCCCCCCCCCCCCCCC)nc3=O)C(O)C2O)OC(n2ccc(N)nc2=O)C1O (stereo unspecified) | > 55.9 µM |
| O=CC(O)C(O)C(O)C(O)COP(=O)(O)Cc1ccccc1 (stereo unspecified) | > 10 µM |
| O=[N+]([O-])c1c(Br)sc(Br)c1[N+](=O)[O-] | 41.5 µM |
| CC(=O)OCC1OC(SC2OC(COC(C)=O)C(OC(C)=O)C(OC(C)=O)C2OC(C)=O)C(OC(C)=O)C(OC(C)=O)C1OC(C)=O (stereo unspecified) | > 100 µM |
| COc1cc(/C=C/C(=O)c2ccc(NC(=O)CN3CCN(c4cc5c(cc4F)c(=O)c(C(=O)O)cn5C4CC4)CC3)cc2)cc(OC)c1OC | 2.14 µM |
| Cc1ccc(-n2[nH]nc(C#N)c2=O)cc1 | > 100 µM |
| S=c1cc(S)sc2c1c(=S)sc1nc3ccccn3c(=S)c12 | > 100 µM |
| Cc1cc(Cc2c(F)c(F)c(C(c3cc(C)no3)c3c(F)c(F)c(F)c(F)c3F)c(F)c2F)on1 (stereo unspecified) | > 100 µM |
| Cc1c2cnccc2c(C)c2c1c1ccccc1n2CCCCCCNCc1ccccc1 | 3.74 µM |
| c1csc(-c2cc(-c3cccs3)c(-c3cccs3)s2)c1 | > 100 µM |
| NCCCNCCCCN(CCCN)/[N+]([O-])=N\O | > 100 µM |
| COc1ccc(OC)c(/C=C(/C)[N+](=O)[O-])c1 | 17.5 µM |
| COc1ccc(Nc2c3ccccc3nc3ccccc23)cc1 | 11 µM |
| Fc1ccccc1C1CC(c2ccc3ccccc3c2)=Nc2ccccc2S1 (stereo unspecified) | > 100 µM |
| COC(=O)CCCC(=O)O | > 100 µM |
| CC(C)(C)c1cc(C2=NN(c3ccccc3)C(c3ccccc3)C2)cc(C(C)(C)C)c1O (stereo unspecified) | > 100 µM |
| O=C(O)/C(=C/C=C/c1ccccc1)c1csc(-c2nc(/C(=C\C=C\c3ccccc3)C(=O)O)cs2)n1 | > 100 µM |
| CC(=Nc1ccccc1)C1=C(O)C(Cc2ccccc2)NC1=O (stereo unspecified) | > 100 µM |
| COc1ccc(/C=C2\N=C(c3ccccc3)N(N=C3NC(=O)CC(=O)N3)C2=O)cc1 | > 100 µM |
| O=C(/C=C/c1ccc(O)c(O)c1)c1cc(O)cc(O)c1 | > 100 µM |

====

- Tested on: SF-295 CNS
- assay.name: NCI tumour cell line growth inhibition, 48 h
Measured TGI of individual entries
measured.property: TGI

| molecule | measured.property | assay.value |
| --- | --- | --- |
| S=c1cc(S)sc2c1c(=S)sc1nc3ccccn3c(=S)c12 | TGI | > 100 µM |
| Cc1cccc2c(=O)c3c(sc12)c(NCCNCCO)nc1ccccc13 | TGI | 3.21 µM |
| Oc1[nH]c2ccc(Cl)cc2c1/C=c1/ccc2c(c1)N=C(c1ccc(F)cc1)N=2 | TGI | 30.6 µM |
| CCCCCCOP(=O)(OCCCCCC)C(NC(=O)OCC)(C(F)(F)F)C(F)(F)F | TGI | > 100 µM |
| CCOC(=O)C1OC(C2(C)OC3(OC4(C=CC3O)OC(C(C)C(=O)C(C)C(O)C(C)CC(C)c3c(Cl)cc(C)c(O)c3C(=O)O)C(C)CC4C)C(C)C2OC)CC1O (configuration not stated) | TGI | 3.89 µM |
| O=C(O)c1cnc2[nH]ccn2c1=O | TGI | > 100 µM |
| CCOC(=O)C(=Cc1ccc(Oc2ccccc2)cc1)C(=O)OCC | TGI | 10.6 µM |
| CN(C)c1ccc(C(Cc2ccc3ccccc3n2)Cc2ccc3ccccc3n2)cc1 | TGI | > 100 µM |
| O=C1CCCC/C1=C\c1ccc(Br)cc1 | TGI | 49.7 µM |
| Cn1/c(=N\S(=O)(=O)c2ccccc2)n(S(=O)(=O)c2ccccc2)c2ccccc21 | TGI | > 100 µM |
| CC(=C(C(N)=O)C(N)=O)C1C=C(c2cccs2)CC(c2ccc(Cl)cc2)=C1O (configuration not stated) | TGI | > 100 µM |
| COC1OC(COCc2ccc(Cl)cc2)C(OCc2ccc(Cl)cc2)C1N=[N+]=[N-] (configuration not stated) | TGI | > 100 µM |
| Fc1ccc(Nc2nc3nonc3nc2Nc2ccc(F)cc2)cc1 | TGI | 1.26 µM |
| COC(=O)CCC(=O)CC(=O)C(=O)Nc1c(Cl)cc([N+](=O)[O-])cc1Cl | TGI | > 100 µM |
| O=[N+]([O-])c1cccc(C2ON2C2CCCCC2)c1 (configuration not stated) | TGI | > 100 µM |
| O=[N+]([O-])c1c(Br)sc(Br)c1[N+](=O)[O-] | TGI | 28.6 µM |
| Nc1[nH]c(=S)nc2snnc12 | TGI | > 100 µM |
| Cc1cccnc1/N=C/c1c(O)n(C)c(=O)[nH]c1=O | TGI | > 100 µM |
| CCOC(=O)C(O)(NC(=O)c1ccccc1F)C(F)(F)F (configuration not stated) | TGI | > 100 µM |
| O=C(/C=C/c1ccc(/C=C/C(=O)c2ccc(O)cc2)cc1)c1ccc(O)cc1 | TGI | > 100 µM |
| O=C(CC1(O)C(=O)Nc2c(Cl)cc(Cl)cc21)c1cccc2ccccc12 (configuration not stated) | TGI | 29.2 µM |
| N=c1c2c(-c3ccccc3)c[nH]c2ncn1N | TGI | > 100 µM |

Source of measurements: PubChem BioAssay (NCI)
